Target: Calmodulin (Homo sapiens, UniProt P0DP23)
Assay: fluorescence anisotropy
No end group written: not given here.
VALUE_TYPE: Kd (µM)

1: FGECYRSSEVRAARLLLRRCPL (cysteine pairing not given here; also: Ca2+) [TRPM4 (M4nt_WT)]
2: PFIVISHLRLLLRQLCRRPRS (also: Ca2+) [TRPM4 (M4ct_WT)]
Out of 1 and 2 , name the one with the higher Kd. Response format: the label of the selected entry. 2
(2: 2.6 µM, 1: 1.3 µM)
